Data credit: ChEMBL document CHEMBL3988442

# System: Leishmania donovani
# PROCEDURE_TEXT: Leishmania intramacrophage assay
# Format: functional, organism-based
# Parameters: scale not given: in the data most compounds retested in dose-response had high values
# PARTICULARS: 30.3 µM; […]
In all, about 69,000 compounds went through this assay and about 1,000 (1.4%) showed an effect of 50% or more. The full list was thinned out, with strong results kept by preference.
# Percent Effect per entry

# COMPOUND, Percent Effect
measured = [
    ("CCc1ccc(C(=O)N2CCC(c3nncn3CC)CC2)o1", "-10.9%"),
    ("CCN1CCC2(CC1)CC(CC(=O)N(C)C)c1ccc(F)cc12 (configuration not stated)", "64.47%"),
    ("Clc1ccccc1CCn1ccnc1-c1cn(C2CCNCC2)nn1", "-11.26%"),
    ("Cc1cccc2[nH]c(-c3cn(C4CCNCC4)nn3)nc12", "8.553%"),
    ("CS(=O)(=O)Cc1ccccc1NCc1cc(Cl)ccc1Cl", "50.41%"),
    ("Cc1ccc(C(=O)N2CCC3(CCN(Cc4ccccn4)C3=O)C2)cn1 (configuration not stated)", "50.83%"),
    ("Cc1csc(CN(CC2CCCO2)C(=O)c2ccc(C)nc2C)n1 (configuration not stated)", "-39.1%"),
]

###

# Tested on: Leishmania donovani
# PROCEDURE_TEXT: Leishmania intramacrophage assay
# Format: functional, organism-based
# Set-up: scale not given: in the data most compounds retested in dose-response had high values
# PARTICULARS: 30.3 µM; […]
In all, about 69,000 compounds went through this assay and about 1,000 (1.4%) showed an effect of 50% or more. What follows is part of a selection rich in strong results, with near analogues and random picks from the rest.
# Percent Effect per entry
REPORTED_ENDPOINT: Percent Effect (%)

# RECORD_SMILES, ASSAY_SYSTEM, VALUE_MEASURED
records = [
    ("CC(C)c1ncncc1C(=O)NCCN1CCOCC1", "Leishmania donovani", -51.02),
    ("N#Cc1ccc(N2CC3(CCN(c4nccs4)C3)C2)nc1.O=CO.O=CO", "Leishmania donovani", 9.16),
    ("O=C(c1ccc(O)c(Cl)c1)N1CCN(c2nccs2)CC1", "Leishmania donovani", 64.57),
]

###

# Tested on: Leishmania donovani
# PROCEDURE_TEXT: Leishmania intramacrophage assay
# Type: functional, organism-based
# Design: scale not given: in the data most compounds retested in dose-response had high values
# PARTICULARS: 30.3 µM; […]
The whole screen tested about 69,000 compounds, of which about 1,000 (1.4%) showed an effect of 50% or more. The entries come from a sample that favours strong results as a whole.
// NB: equality with 20% counts as not fulfilled; only Percent Effect strictly below is fulfilled

# MOLECULE, CATEGORY_LABEL
rows = [
    ("CN(C)S(=O)(=O)c1ccc(-c2nc(C#N)c(NC3CCCCC3)o2)o1", "not fulfilled"),
    ("O=C(N1CCCC1)N1C[C@H]2CCC[C@@]2(COCc2ccccn2)C1.O=C(O)C(F)(F)F", "fulfilled"),
    ("COc1ccc(C2CCCN2c2nnc(C)s2)c(OC)c1 (configuration not stated)", "fulfilled"),
    ("COc1cc(-c2nccn2C(C)CCn2cccn2)cc2c1OCO2 (configuration not stated)", "not fulfilled"),
    ("O=C(NC1CCC1)C1=NOC2(CCN(Cc3ccccc3)C2)C1 (configuration not stated)", "fulfilled"),
    ("COc1cc(N2CCCC(CO)(Cc3ccccc3F)C2)ncn1 (configuration not stated)", "not fulfilled"),
    ("COCCC(=O)N1CCCC1c1nccc(C)n1 (configuration not stated)", "fulfilled"),
    ("O=C(CCOc1ccccc1)NS(=O)(=O)Cc1ccccc1", "fulfilled"),
    ("O=C(CN1CCc2cncnc2C1)NC1CCCCNC1=O (configuration not stated)", "fulfilled"),
    ("CN(C)C[C@@H]1C[C@@H]2CN(Cc3nccn3C)CC[C@@H]2N1CC1CC1", "not fulfilled"),
    ("CC(=O)c1cccc(OCCCC(=O)N(C)Cc2cnn(C)c2)c1", "fulfilled"),
    ("CC(=O)c1ccc(N2CCCC(CO)(Cc3ccccc3F)C2)nc1 (configuration not stated)", "fulfilled"),
    ("COc1ccc(CNC(=O)CCc2c(C)noc2C)cc1F", "fulfilled"),
    ("CNC(=O)c1sccc1S(=O)(=O)Nc1ccc(C)cc1", "fulfilled"),
    ("O=C(O)C(F)(F)F.O=C(c1ccc[nH]1)N1CCn2cc(Cn3cccn3)nc2C1", "not fulfilled"),
    ("O=C(Nc1cccc(F)c1)NC1CCN(Cc2ccncc2)CC1", "not fulfilled"),
]
